The origin of these recorded values is ChEMBL document CHEMBL3632568.

IC50 by entry:
# System: Leishmania donovani
# TEST PROTOCOL: Antileishmanial activity against axenic amastigote stage of Leishmania donovani assessed as growth inhibition after 72 hrs by Alamar Blue assay
# Assay type: functional, organism-based
Give a bare numeral; the unit µg/mL is implied.

Recorded results for 10 compounds are shown here.
- LINE NOTATION: "C=C1CC[C@H]2[C@@](C)(CCC[C@]2(C)C(=O)NC2CCCCC2)[C@@H]1CCc1ccoc1"
  STUDY TARGET: "Leishmania donovani"
  IC50 (µg/mL): 4.23
- LINE NOTATION: "C=C1CC[C@H]2[C@@](C)(CCC[C@]2(C)C(=O)NCCCC)[C@@H]1CCc1ccoc1"
  STUDY TARGET: "Leishmania donovani"
  IC50 (µg/mL): 5.93
- LINE NOTATION: "C=C1CC[C@H]2[C@@](C)(CCC[C@]2(C)C(=O)NC(C)C)[C@@H]1CCc1ccoc1"
  STUDY TARGET: "Leishmania donovani"
  IC50 (µg/mL): 7.04
- LINE NOTATION: "C=C1CC[C@H]2[C@@](C)(CCC[C@]2(C)C(=O)O)[C@@H]1CCc1ccoc1"
  STUDY TARGET: "Leishmania donovani"
  IC50 (µg/mL): 8.68
- LINE NOTATION: "C=C1CC[C@H]2[C@@](C)(CCC[C@]2(C)C(=O)N2CCOCC2)[C@@H]1CCc1ccoc1"
  STUDY TARGET: "Leishmania donovani"
  IC50 (µg/mL): 9.9
- LINE NOTATION: "C[C@@H]1[C@H](O)[C@@H](C)/C=C/C=C/C=C/C=C/C=C/C=C/C=C/[C@H](O[C@@H]2O[C@H](C)[C@@H](O)[C@H](N)[C@@H]2O)C[C@@H]2O[C@](O)(C[C@@H](O)C[C@@H](O)[C@H](O)CC[C@@H](O)C[C@@H](O)CC(=O)O[C@H]1C)C[C@H](O)[C@H]2C(=O)O"
  STUDY TARGET: "Leishmania donovani"
  IC50 (µg/mL): 0.195
- LINE NOTATION: "C=C1CC[C@H]2[C@@](C)(CCC[C@]2(C)C(=O)NC2CC2)[C@@H]1CCc1ccoc1"
  STUDY TARGET: "Leishmania donovani"
  IC50 (µg/mL): 8.21
- LINE NOTATION: "C=C1CC[C@H]2[C@@](C)(CCC[C@]2(C)C(=O)NCC2CCCCC2)[C@@H]1CCc1ccoc1"
  STUDY TARGET: "Leishmania donovani"
  IC50 (µg/mL): 3.84
- LINE NOTATION: "C=C1CC[C@H]2[C@@](C)(CCC[C@]2(C)C(=O)N(CC)CC)[C@@H]1CCc1ccoc1"
  STUDY TARGET: "Leishmania donovani"
  IC50 (µg/mL): 5.12
- LINE NOTATION: "N=C(N)c1ccc(OCCCCCOc2ccc(C(=N)N)cc2)cc1"
  STUDY TARGET: "Leishmania donovani"
  IC50 (µg/mL): 1.89

Next compound, please.
Tested system Leishmania donovani; IC50 recorded for C=C1CC[C@H]2[C@@](C)(CCC[C@]2(C)C(=O)NCCOC)[C@@H]1CCc1ccoc1 was 6.73
